Recorded values, source ChEMBL document CHEMBL1201862.

system: DLD-1; test: NCI tumour cell line growth inhibition, 48 h
Active and inactive are the calls of the source. No stated cut-off is given here; in the data, active = GI50 up to about 1.1 µM and inactive = higher.
OBSERVABLE: GI50

>>> meas_value("Cc1ccc2nc3c(C(=O)NCCN(C)C)cccc3cc2c1")
"2.01 µM (inactive)"
>>> meas_value("O=C(O)/C=C/n1c2ccccc2c(=O)c2ccccc21")
"> 100 µM (inactive)"
>>> meas_value("Nc1ncnc2c1ncn2C1OC(CSC(F)F)C(O)C1O (centres undefined)")
"> 100 µM (inactive)"
>>> meas_value("OC1CC(O)O[C@H](c2ccccc2)C1 (some centres undefined)")
"> 100 µM (inactive)"

* * *

tested on: HOP-92; assay: NCI tumour cell line growth inhibition, 48 h
The source made the active and inactive calls. Rule as the data show it: active = GI50 up to about 1.1 µM and inactive = higher.
OBSERVABLE: GI50

>>> meas_value("O=C(O)CCSC(=O)Nc1ccc(/N=N/c2ccccc2)cc1")
"> 100 µM (inactive)"
>>> meas_value("N#Cc1c(C#N)c(-c2cccc([N+](=O)[O-])c2)n(-c2ccccc2)c1N")
"17.8 µM (inactive)"
>>> meas_value("CN1CCN(c2ccc3[nH]c(-c4ccc5[nH]c(CCCc6ccc(N(CCCl)CCCl)cc6)nc5c4)nc3c2)CC1")
"> 100 µM (inactive)"
>>> meas_value("COc1ccc(/C(Cl)=C(\\C=O)c2ccc(Br)cc2)cc1OC")
"17.7 µM (inactive)"
>>> meas_value("CC(C)C(/C=C/c1ccc(Cl)cc1)=N\\NC(=O)N/N=C(/C=C/c1ccc(Cl)cc1)C(C)C")
"21.7 µM (inactive)"
>>> meas_value("CC1(C)CC(=O)C2=C(C1)OC1=C(C(=O)CC(C)(C)C1)C2CC(c1ccccc1)c1ccc(O)c(O)c1O (stereo not drawn)")
"5.18 µM (inactive)"
>>> meas_value("CCN(CC)CCNc1nc(N)c(C#N)c(C#N)c1C#N")
"> 10 µM (inactive)"
>>> meas_value("CC(=O)NNc1nc(C)c(C(/C=C/c2cccc([N+](=O)[O-])c2)=N/NC(=S)NN)s1")
"> 100 µM (inactive)"
>>> meas_value("CC(=O)c1cccc(Nc2nc3ccccc3c3[nH]c4ccccc4c23)c1")
"2.87 µM (inactive)"
>>> meas_value("Nc1ncnc2c1ncn2C1OC(CSC(F)F)C(O)C1O (stereo not drawn)")
"> 100 µM (inactive)"
>>> meas_value("Cc1nc(-c2ccc(Cl)cc2)cn2c1nc1ccccc12")
"> 33.1 µM (inactive)"
>>> meas_value("COc1cc(C2c3cc4c(cc3[C@@H](NCCN3CCCCC3)C3COC(=O)[C@H]23)OCO4)cc(OC)c1O (stereo partly drawn)")
"0.142 µM (active)"
>>> meas_value("C/C=C(\\C)C(=O)N1c2ccccc2CC1c1c(C)[nH]c2ccccc12 (stereo not drawn)")
"12.2 µM (inactive)"
>>> meas_value("O=C(CC1C(=O)Nc2ccccc2S1(=O)=O)Nc1cccc(Cl)c1 (stereo not drawn)")
"16.1 µM (inactive)"
>>> meas_value("Nc1nc(O)c2c(n1)NCN(CCCN1CCOCC1)C2")
"> 100 µM (inactive)"
>>> meas_value("CCOC(=O)C(=O)/C(=C/NC(=S)Nc1ccc(Cl)c(Cl)c1)C(=O)OCC")
"55.8 µM (inactive)"
>>> meas_value("COC(=O)c1c(-c2ccccc2)sc(-c2cccc3ccccc23)c1C(=O)OC")
"> 100 µM (inactive)"
>>> meas_value("CC(=O)OI1NC(=O)c2ccccc21")
"> 100 µM (inactive)"
>>> meas_value("O=S1(=O)CS(=O)(=O)OCCCCCO1")
"> 100 µM (inactive)"
>>> meas_value("CCN(CC)CCOCC1CCCN2CCCCC12 (stereo not drawn)")
"> 100 µM (inactive)"
>>> meas_value("CCOC(=O)c1cccc([N+](=O)[O-])c1N")
"> 100 µM (inactive)"
>>> meas_value("O=C1CN(C(=O)C2CCCN2C(=O)C2CCCN2)C(=O)CN1 (stereo not drawn)")
"> 100 µM (inactive)"
>>> meas_value("FC(F)(F)c1ccc2nc(NCc3ccccc3)c(-c3ccccc3)nc2c1")
"0.521 µM (active)"
>>> meas_value("O=C(O)c1ccc(C2SCc3nc4ccccc4n32)cc1 (stereo not drawn)")
"> 100 µM (inactive)"
>>> meas_value("O=C(CSCC(=O)N/N=C\\c1ccc(F)cc1F)N/N=C\\c1ccc(F)cc1F")
"> 100 µM (inactive)"
>>> meas_value("Cc1ccc2c(c1)[nH]c(=S)n2C=C1C(=O)CC(C)(C)CC1=O")
"> 100 µM (inactive)"
>>> meas_value("COc1cc2c3c(c1OCc1ccccc1)NCCC3NCC2 (stereo not drawn)")
"86.1 µM (inactive)"
>>> meas_value("Cc1ccc([N+](=O)[O-])c2c(NCCNC(=O)Cn3ccnc3[N+](=O)[O-])ccnc12")
"26.5 µM (inactive)"

* * *

tested on: OVCAR-8; experiment: NCI tumour cell line growth inhibition, 48 h
Calls of active or inactive are those of the source. Cut-off read from the data, not from the text of the source: active = GI50 up to about 1.1 µM and inactive = higher.
Outcomes: 1 for active, 0 for inactive

>>> assigned_class("CCOc1ccc(/C=C/C(=O)c2sc(NNC(C)=O)nc2C)cc1")
0
>>> assigned_class("C[C@@H]([C@H]1CC[C@@]2(C)[C@@H]3CC[C@@H]4C(=CC3=CC[C@]12C)CC[C@H](N(C)C)C4(C)C)N(C)C [BUXAMINE A]")
0
>>> assigned_class("CCOP(=O)(OCC)/C(C#N)=C\\c1ccc(OC(C)=O)cc1")
0
>>> assigned_class("Cc1ccc2c(O)cc(-c3cccc(Cl)c3)nc2n1")
1
>>> assigned_class("O=C1OC2C(O)COC2(O)C1(O)C(C[N+](=O)[O-])c1ccc(Cl)cc1 (stereo unspecified)")
0
>>> assigned_class("O=c1cc(-c2ccccc2)[nH]c2ccc(S)cc12")
0
>>> assigned_class("Cc1ccc(CC(=O)Nc2ccc(NC(=O)CNC(=O)/C=C/c3ccc(-c4ccccc4)cc3)cc2C(=O)c2ccccc2)cc1")
0
>>> assigned_class("COc1ccc(-c2cc(-c3cc(C)cc(Br)c3O)no2)cc1")
0
>>> assigned_class("CCN(CC)/[N+]([O-])=N/OS(=O)(=O)N(C)C")
0
>>> assigned_class("N=c1oc2c(O)c(O)ccc2cc1C(N)=O")
0
>>> assigned_class("CC1OC1C(=O)C1(O)C(C)C(O)C23OC2(C(O)c2c(O)cccc2C3=O)C1O (stereo unspecified) [CERVICARCIN]")
1
>>> assigned_class("Nc1ncnc2c1ccn2C1OC2COP(=O)(O)OC2C1O (stereo unspecified)")
1
>>> assigned_class("Cc1c(O)c(=O)ccn1CCN")
0
>>> assigned_class("CCCOP1(=O)C=CC(Cl)=C(C)C1 (stereo unspecified)")
0
>>> assigned_class("CC12OC(=O)C(C#N)C1(C)C1C(=O)CCCC12 (stereo unspecified)")
0
>>> assigned_class("COc1ccc(/C(Cl)=C(\\C=O)c2ccc(Br)cc2)cc1OC")
0
>>> assigned_class("CC(N)C(=O)c1ccc(O)cc1 (stereo unspecified)")
0
>>> assigned_class("O=C1OC(C2Cc3ccc4c(c3C2=O)CCCC4)c2ccccc21 (stereo unspecified)")
0
>>> assigned_class("CC(C)N(C(=O)C12C3C4C1C1C4(C#N)C3C12C(=O)O)C(C)C (stereo unspecified)")
0
>>> assigned_class("Cc1cc(S(=O)(=O)O)c(NC(=O)c2oc3cc(O)ccc3c(=O)c2C)cc1Cl")
0
>>> assigned_class("CCOc1ccc2nc(NC(=O)C(=O)C(C#N)CC(C)(C)C=O)sc2c1 (stereo unspecified)")
0
>>> assigned_class("COC(=O)CC(C(C(=O)OC)C(=O)OC)N1C(=O)OC(c2ccccc2)C1c1ccccc1 (stereo unspecified)")
0
>>> assigned_class("Cc1cn([C@@H]2C[C@@H]2CO)c(=O)[nH]c1=O")
0
>>> assigned_class("Nc1ccc(C2=Nc3ccccc3SC(c3ccccc3O)C2)cc1 (stereo unspecified)")
0
>>> assigned_class("CC(C)C(CCOS(=O)(=O)O)CCC(C)[C@H]1[C@@H](O)C(O)C2[C@]3(O)C[C@@H](O)C4(O)C[C@@H](O)CC[C@]4(C)C3CC[C@@]21C (stereo partly specified)")
0
>>> assigned_class("CC(=O)Nc1ccc(C(=O)NN2C(=O)C(Cl)C2c2ccc([N+](=O)[O-])cc2)cc1 (stereo unspecified)")
0

* * *

tested on: UACC-257; assay: NCI tumour cell line growth inhibition, 48 h
Calls of active or inactive are those of the source. Rule as the data show it: active = GI50 up to about 1.1 µM and inactive = higher.
OBSERVABLE: GI50

>>> meas_value("CCOc1cc(-c2nc3ccccn3c2/N=C/c2cc(Br)ccc2O)ccc1O")
"18.1 µM (inactive)"
>>> meas_value("COC1=CC(=O)C2C(C1=O)[C@@H]1c3ccccc3OC(C)(C)[C@H]21 (stereo partly drawn)")
"29.2 µM (inactive)"
>>> meas_value("COC(=O)c1ccccc1/C=C1\\Cc2cc(C)cc(C)c2C1=O")
"> 100 µM (inactive)"
>>> meas_value("COc1cc2c3c(c1OC)C(=O)C=C3N(S(=O)(=O)c1ccc(C)cc1)CC2")
"> 100 µM (inactive)"
>>> meas_value("Cc1c(N2CCOCC2)nc2ccc(Cl)cc2c1-c1ccccc1")
"> 100 µM (inactive)"
>>> meas_value("CC(=O)c1ccc2c(c1)N(CCCN1CCN(CCO)CC1)c1ccccc1C2")
"5.78 µM (inactive)"
>>> meas_value("C[C@@H]([C@H]1CC[C@@]2(C)[C@@H]3CC[C@@H]4C(=CC3=CC[C@]12C)CC[C@H](N(C)C)C4(C)C)N(C)C")
"> 100 µM (inactive)"
>>> meas_value("COc1cc(C2c3cc4c(cc3OC(N3CCOCC3)C2C)OCO4)cc(OC)c1O (stereo not drawn)")
"17.8 µM (inactive)"
